study.system: GABA-AT (Sus scrofa)
Construct: GABA-AT was isolated from pig brains and purified according to a literature procedure; from tissue; host or cells: pig brain
experiment.summary: Coupled enzyme assay, time-dependent inactivation of GABA-AT
Type: biochemical, pig
assay.context: GABA-AT, pH 8.0; bound: KI is greater than kobs (max)/ratio (footnote b)
Structures can show the parent of a compound that is named as a salt.
property: Ki

# value of Ki, GABA-AT (Sus scrofa), item N[C@H]1CC(C(=O)O)=CCC1(F)F [Compound 11, hydrochloride] = > 9.63 mM

Tested on GABA-AT (Sus scrofa), the item N[C@H]1C=C(C(=O)O)CCC1(F)F [Compound 9, hydrochloride] showed Ki equal to > 0.12 mM

====

study.system: hOAT (Homo sapiens)
Sequence (P04181 26-439): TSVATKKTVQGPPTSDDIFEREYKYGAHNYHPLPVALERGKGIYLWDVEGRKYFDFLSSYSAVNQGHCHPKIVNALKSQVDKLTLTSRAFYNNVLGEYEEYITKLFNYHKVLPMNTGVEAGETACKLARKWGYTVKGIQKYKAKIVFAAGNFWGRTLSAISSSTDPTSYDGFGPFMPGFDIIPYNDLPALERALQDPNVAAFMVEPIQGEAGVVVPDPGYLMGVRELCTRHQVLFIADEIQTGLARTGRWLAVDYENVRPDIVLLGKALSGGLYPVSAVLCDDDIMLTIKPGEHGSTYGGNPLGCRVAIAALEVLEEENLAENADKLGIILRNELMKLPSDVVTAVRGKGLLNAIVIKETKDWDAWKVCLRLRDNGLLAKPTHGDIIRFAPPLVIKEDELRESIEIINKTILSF
experiment.summary: Coupled enzyme assay, time-dependent inactivation of hOAT
Where a name gives a salt, the structure may show the parent alone.
Give pKi for every item shown.
Scale: pKi equals -log10([C]), with [C] in mol/L.

N[C@H]1C=C(C(=O)O)CC[C@@H]1F [Compound 8, hydrochloride] has a reported pKi of 4.51

What the record says about N[C@H]1CC(C(=O)O)=CCC1(F)F [Compound 11, hydrochloride] : pKi is 3.27

Field pKi (entry N[C@H]1C=C(C(=O)O)CCC1(F)F [Compound 9, hydrochloride] ) reads 5.64

pKi recorded for this compound, N[C@H]1C[C@@H](C(=O)O)CC1=C(C(F)(F)F)C(F)(F)F [Compound 7, reference compound] , is 4.19

Given item N[C@H]1CC(C(=O)O)=CC[C@@H]1F [Compound 10, hydrochloride] , the value recorded as its pKi is 2.36

====

study.system: hOAT (Homo sapiens)
Construct: made in house
experiment.summary: Coupled enzyme assay, time-dependent inactivation of hOAT
Assay type: biochemical
assay.context: read-out: kinact (converted)
Counter-ions that a name gives are not always drawn.
Provide the recorded kinact for the entries that follow.
Return type: number; implicit unit s⁻¹.

Noted kinact for N[C@H]1CC(C(=O)O)=CCC1(F)F [Compound 11, hydrochloride] , tested on hOAT (Homo sapiens): 0.00138

Measured kinact for this entry N[C@H]1C=C(C(=O)O)CCC1(F)F [Compound 9, hydrochloride] on hOAT (Homo sapiens): 0.0008

Item N[C@H]1C=C(C(=O)O)CC[C@@H]1F [Compound 8, hydrochloride] ; assay system hOAT (Homo sapiens); kinact reported as 0.00133

Record N[C@H]1CC(C(=O)O)=CC[C@@H]1F [Compound 10, hydrochloride] ; system hOAT (Homo sapiens); kinact = 0.00125

====

study.system: GABA-AT (Sus scrofa, UniProt P80147)
Construct: GABA-AT was isolated from pig brains and purified according to a literature procedure; from tissue; host or cells: pig brain
Sequence (P80147 29-500): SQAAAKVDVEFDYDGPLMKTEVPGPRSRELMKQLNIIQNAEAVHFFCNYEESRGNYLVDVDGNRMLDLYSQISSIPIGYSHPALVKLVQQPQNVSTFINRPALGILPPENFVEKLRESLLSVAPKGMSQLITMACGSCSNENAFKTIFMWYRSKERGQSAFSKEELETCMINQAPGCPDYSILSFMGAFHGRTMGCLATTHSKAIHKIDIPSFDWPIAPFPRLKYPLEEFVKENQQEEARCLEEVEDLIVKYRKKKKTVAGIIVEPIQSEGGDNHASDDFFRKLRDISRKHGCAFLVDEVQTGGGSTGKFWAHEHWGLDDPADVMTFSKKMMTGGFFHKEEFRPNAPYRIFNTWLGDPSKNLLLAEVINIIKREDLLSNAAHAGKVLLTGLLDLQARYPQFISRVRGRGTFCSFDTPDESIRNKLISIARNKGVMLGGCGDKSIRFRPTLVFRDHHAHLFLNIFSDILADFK
experiment.summary: Coupled enzyme assay, time-dependent inactivation of GABA-AT
Format: biochemical, pig
assay.context: inactivation of GABA-AT, pH 8.0
Structures can show the parent of a compound that is named as a salt.
property: Ki (µM)
Reply numerically in µM, unit not repeated.

Item: N[C@H]1C=C(C(=O)O)CC[C@@H]1F [Compound 8, hydrochloride] | System: GABA-AT (Sus scrofa, UniProt P80147) | Ki: 2530

Ki of N[C@H]1CC(C(=O)O)=CC[C@@H]1F [Compound 10, hydrochloride] , assay on GABA-AT (Sus scrofa, UniProt P80147), is 4280

GABA-AT (Sus scrofa, UniProt P80147) assay, compound N[C@H]1C[C@@H](C(=O)O)C[C@@H]1F [Compound 1, reference compound] , recorded Ki = 78

====

study.system: GABA-AT (Sus scrofa)
Construct: GABA-AT was isolated from pig brains and purified according to a literature procedure; from tissue; host or cells: pig brain
experiment.summary: Coupled enzyme assay, time-dependent inactivation of GABA-AT
Type: biochemical, pig
assay.context: GABA-AT, pH 6.5
Counter-ions that a name gives are not always drawn.
property: Ki (µM)
Use µM as the unit, but write only the number.

Kindly note: GABA-AT (Sus scrofa), N[C@H]1C=C(C(=O)O)CCC1(F)F [Compound 9, hydrochloride] , Ki value reported: 1100

These entries and their values trace back to patent US12492164B2.
